- Assay Target: LHRH receptor (Rattus norvegicus, UniProt P30969)
- Construct: endogenous in cells
- Sequence (P30969 1-327): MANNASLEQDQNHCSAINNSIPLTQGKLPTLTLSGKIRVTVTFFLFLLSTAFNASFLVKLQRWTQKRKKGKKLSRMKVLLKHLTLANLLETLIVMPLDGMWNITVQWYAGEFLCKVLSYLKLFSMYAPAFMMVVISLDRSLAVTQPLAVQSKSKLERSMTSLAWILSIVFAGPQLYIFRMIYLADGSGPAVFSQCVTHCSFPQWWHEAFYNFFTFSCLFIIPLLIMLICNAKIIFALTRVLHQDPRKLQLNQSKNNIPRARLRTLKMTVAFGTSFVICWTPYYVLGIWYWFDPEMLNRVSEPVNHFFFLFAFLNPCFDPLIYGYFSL
- Assay Explanation: in vitro LHRH antagonist potency (pA2) against the agonist leuprolide
- Format: cell-based
- Condition Label: negative logarithm of the antagonist concentration which shifts the response curve produced by the agonist leuprolide to two-fold higher concentration
Where a SMILES comes first, the peptide text is derived from it. Side-chain parts run from the residue outwards. [ ]: non-standard residue; d: D form. The star is where a group is joined. dPhe(4-Cl) = N[C@H](Cc1ccc(Cl)cc1)C(=O)O; d2Nal = N[C@H](Cc1ccc2ccccc2c1)C(=O)O; NMeY = CN[C@@H](Cc1ccc(O)cc1)C(=O)O; d3Pal = N[C@H](Cc1cccnc1)C(=O)O; Nicotinoyl = O=C(c1cccnc1)*; azaGly = NNC(=O)O
Measured Property: Kb (pM)

INSERT INTO assay_data (compound, unit_annotation, observed_measurement) VALUES
  ('CC(=O)N[C@H](Cc1ccc2ccccc2c1)C(=O)N[C@H](Cc1ccc(Cl)cc1)C(=O)N[C@H](Cc1cccnc1)C(=O)N[C@@H](CO)C(=O)N(C)[C@@H](Cc1ccc(O)cc1)C(=O)N[C@H](CCCCNC(=O)NNC(=O)c1cccnc1)C(=O)N[C@@H](CC(C)C)C(=O)N[C@@H](CCCNC(=N)N)C(=O)N1CCC[C@H]1C(=O)N[C@H](C)C(N)=O [Example 37b] (Ac-[d2Nal][dPhe(4-Cl)][d3Pal]S[NMeY][dK]([azaGly-Nicotinoyl])LRP[dA]-NH2)', 'pM', 5.62);
